Source listed as BindingDB's records for doi:10.7270/Q2RJ4GVG.

- Experimental system: Isoform 2 of Nuclear receptor ROR-alpha (Alpha-2) (Homo sapiens, UniProt P35398)
- Sequence (P35398 whole entry): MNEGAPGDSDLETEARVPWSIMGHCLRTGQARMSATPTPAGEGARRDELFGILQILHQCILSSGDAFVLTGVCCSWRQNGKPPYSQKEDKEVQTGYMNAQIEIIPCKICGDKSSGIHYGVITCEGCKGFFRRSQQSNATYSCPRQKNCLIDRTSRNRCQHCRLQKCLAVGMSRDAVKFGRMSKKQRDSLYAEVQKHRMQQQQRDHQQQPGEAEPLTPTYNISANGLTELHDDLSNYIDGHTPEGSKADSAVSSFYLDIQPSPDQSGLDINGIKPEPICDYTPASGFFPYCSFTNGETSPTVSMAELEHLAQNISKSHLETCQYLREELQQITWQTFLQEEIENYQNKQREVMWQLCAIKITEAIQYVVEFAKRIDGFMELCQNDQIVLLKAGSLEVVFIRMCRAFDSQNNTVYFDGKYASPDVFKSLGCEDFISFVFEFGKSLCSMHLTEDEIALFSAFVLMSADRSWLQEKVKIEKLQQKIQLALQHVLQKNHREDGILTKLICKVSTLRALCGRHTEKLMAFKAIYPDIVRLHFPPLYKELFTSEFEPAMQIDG
- Procedure summary: activators of RORA nuclear receptor, dose response, cell-based, CHO-K1, Gal4-RORA LBD, luciferase luminescence (AID 681)
pEC50: −log10 of the molar value.
Measured metric: pEC50

Worked set:
C=CCOc1ccc(C=CC(C)N=O)cc1 (stereo unspecified) :: 5.87
Oc1coc2ccc(OCc3ccc(F)cc3)cc12 [5-(4-fluorobenzyl)oxycoumaran-3-one] :: 5.44
Clc1ccc(-c2nnc(-c3ccccc3Cl)o2)cc1 :: 6.37
CCOC(=O)CSc1nc2cc(OCC)ccc2cc1C#N :: 5.74

I: Cc1cc(NCCOCCO)n2ncc(-c3ccc(Cl)cc3)c2n1
II: COc1ccc2nc(NC(=O)CSc3nnc(-c4ccoc4C)n3C)sc2c1 [MLS000073639]
Problem: Given the entries I and II , determine which has the lower reported pEC50. Output the label that corresponds to your choice.
II

I: COc1cccc(NC(=O)c2nnn(Cc3ccc(Br)cc3F)c2N)c1
II: Cc1c(C(=O)OCC2CCCO2)[nH]c2c1C(=O)CC(c1ccco1)C2 (stereo unspecified)
Compare I and II by numeric pEC50 and name the larger one. Selection: enter the item's label.
II
(II: 5.78, I: 5.34)
